# method: TarO Biochemical Enzymatic Assay: The TarO biochemical enzymatic assay is a liquid chromatography-mass spectroscopy (LC-MS) based end point assay that measures C55-P-P-GlcNAc (LIPID III) production. The TarO biochemical enzymatic assay was performed in a 384-well microtiter plate (Labcyte) with a reaction volume of 20 μl. The reaction mix contained 0.1 μgs/μl of TarO membrane preparation derived from MRSA COL (lysostaphin/lysozyme treated, centrifuged at 40K rpm, and re-suspended in 50 mM Tris pH 7.5, 10 mM MgCl2), 1500 μM UDP-GlcNAc, x 75 μM C55-P substrates in 83 mM Tris pH 8.0, 6.7 mM MgCl2, 6 mM CHAPS, and 8.3% DMSO buffer. The enzyme reactions were quenched by extraction in 40 μl of 1-pentanol containing 0.04 μM […] C55-PP-GlcNAc, which was used as an internal standard. A 10 μl volume of the quenched reaction mixture (pH≈3) from each well was injected onto a reversed-phase column (C4, 5 m, 2.1×50 mm, Thermo Scientific Biobacis-4) and eluted using a NH4Ac/H2O/MeOH gradient (solvent A: 10 mM NH4Ac in water, pH 5.6; solvent B: NH4Ac (1 M)-Isopropanol (1:90, v/v, pH 5.6). The HPLC conditions were as follows: 15% solvent B for 15 seconds followed by a gradient to 90% solvent B in 90 seconds; then solvent B was kept at 95% for 10 seconds followed by a gradient to 8% solvent B in 0.1 minute. The column was then equilibrated at 15% B for 1 minute before the next injection. The flow rate was kept constant at 600 μl/minute. Mass spectrometric detection was carried out in the negative-ion mode using selected reaction monitoring (SRM). Typical mass spectrometric conditions were as follows: heated capillary temperature, 210° C.; spray voltage, 2500 V; desolvation gas (N2), 40 l/h; auxiliary gas (N2), 35 l/h. Selected ion current (SIC) chromatograms of C55-PP-GlcNAc and internal standard 15C C55-PP-GlcNAc were plotted and integrated using LCQuan incorporated in Xcalibur software (ThermoFinnigan). The linearity of C55-PP-GlcNAc concentration versus mass spectrometric signal (AC55-PP-GlcNAc/A15C-C55-PP-GlcNAc) was determined with purified C55-PP-GlcNAc. The IC50 values were calculated using the nonlinear regression analysis (sigmoidal dose response fit allowing for a variable slope) of percent inhibition data with minimum and maximum values set to 0 and 100 percent.
metricName: IC50 (nM)
Express your answer in nM, writing the number without its unit.

Enquiry: Please look up its IC50: "Cc1nc(C(C)C)sc1CNC(=O)N1C(=O)O[C@H](c2cc(F)cc(C(F)(F)F)c2)[C@@H]1C"
Return: 160

Enquiry: Please look up its IC50: "Cc1ccccc1CNC(=O)N1C(=O)O[C@H](c2cc(F)cc(C(F)(F)F)c2)[C@@H]1C"
Return: 140

Enquiry: Please look up its IC50: "C[C@H]1[C@@H](c2cc(C(F)(F)F)cc(C(F)(F)F)c2)OC(=O)N1C(=O)Cc1cccc2ccccc12"
Return: 130

Enquiry: Please look up its IC50: "C[C@H]1[C@@H](c2cccc(C(F)(F)F)c2)OC(=O)N1C(=O)NCc1cncc2ccccc12"
Return: 160

Enquiry: Please look up its IC50: C[C@H]1[C@@H](c2cc(C(F)(F)F)cc(C(F)(F)F)c2)OC(=O)N1C(=O)NCC1CCCc2ccccc21 (some centres not stated)
Return: 160

Enquiry: Please look up its IC50: "O=C(NCc1cncc2cccnc12)N1C(=O)O[C@H](c2cc(C(F)(F)F)cc(C(F)(F)F)c2)[C@@H]1CO"
Return: 140

Enquiry: Please look up its IC50: "C[C@H]1[C@@H](c2cc(C(F)(F)F)cc(C(F)(F)F)c2)OC(=O)N1C(=O)NCc1nccc2ccoc12"
Return: 150
